From: PubChem BioAssay AID1508601

- Procedure Details: p53 stabilisation in HPV-positive human cells, imaging, p53-positive nuclei imaging, 24 h, 48 h (AID 1508601)
- Experimental Conditions: 24/48 h, measured here: cell number at 48 h, Library stock concentration: 3.333 mM
In all, about 5,700 compounds went through this assay and about 85 (1%) were called active. Shown is part of a subset that was picked to be rich in actives.
Decision: nuclei count, normalised compared against 30%; not below it gives Met, below it gives Not met.

>>> answer_label("CC[n+]1c(-c2ccccc2)c2cc(N)ccc2c2ccc(N)cc21")
"Met"
>>> answer_label("NOCCC(N)C(=O)O (stereo unspecified)")
"Met"
>>> answer_label("CN1C(=O)[C@@]23C[C@]4([C@]56C[C@@]78SS[C@@](CO)(C(=O)N7[C@@H]5Nc5ccccc56)N(C)C8=O)c5ccccc5N[C@H]4N2C(=O)[C@]1(CO)SS3")
"Not met"
>>> answer_label("CC1=CC(=O)c2c(O)cccc2C1=O")
"Met"
>>> answer_label("OC1CN2CCC(O)[C@H]2C(O)C1O (stereo partly specified)")
"Met"
